# credit: PubChem BioAssay (NCI)

Test system: HCT-116 colon
procedure_text: NCI-60 one-dose screen, 48 h
experimental_parameters: 10 µM unless noted
This is part of a sample that, as a whole, favours compounds with a hit. Of some 83,000 tested, about 20% had one in any assay. Calls of active or inactive are those of the source. The calls were made as follows: active = growth percent below 10; inactive = the rest.
Outcome codes: active, inactive

molecule | study_target | classification
CC(=O)OCC1O[C@@H]([S-])C(OC(C)=O)[C@H](OC(C)=O)[C@@H]1OC(C)=O.[Au+].c1ccc(CN2[CH-]N(Cc3ccccc3)C(c3ccccc3)=C2c2ccccc2)cc1 | HCT-116 colon | inactive
c1cnc2[nH]cc(-c3csc(-c4cn(CCCCN5CCCCC5)c5ccccc45)n3)c2c1 | HCT-116 colon | inactive
CCCCCCCCCCCCCC[P+](CCCCCC)(CCCCCC)CCCCCC | HCT-116 colon | active
CO[C@H]1CC[C@@]2(C)C(=CC[C@@H]3[C@@H]2CC[C@]2(C)C(=O)C(=O)C[C@@H]32)C1 | HCT-116 colon | inactive
O=C1NC(=O)C(=Cc2cn(CCCCCCn3c4ccccc4c(=O)c4ccccc43)c3ccccc23)C(=O)N1 | HCT-116 colon | inactive
Clc1ccc2nnnn2n1 | HCT-116 colon | active
Cn1cccc1C1CC(=O)N(CCC[Se]C#N)C1=O (stereo not drawn) | HCT-116 colon | active
Fc1ccc2c(c1)c(-c1nc(-c3c[nH]c4ncccc34)cs1)cn2CCCCN1CCCCC1 | HCT-116 colon | active
CC(=O)c1ccc(C(=O)NCC2CCC3(CC2)OOC2(CCCCC2)OO3)cc1 | HCT-116 colon | inactive
COc1ccc(C(=O)c2sc3nc4c(cc3c2N)N2CCC4CC2)cc1OC | HCT-116 colon | inactive
COc1cc(/C=C\c2cc(OC)c(OC)c(OC)c2)cc(NS(=O)(=O)c2cccc(Cl)c2)c1OC | HCT-116 colon | active
Clc1ccc(CO/N=C(\Cn2ccnc2)c2ccc(Cl)cc2Cl)c(Cl)c1 | HCT-116 colon | active
COc1ccc([As]=[As]c2ccc(OC)c(NCS(=O)(=O)O)c2)cc1NCS(=O)(=O)O (stereo not drawn) | HCT-116 colon | active
O=C1CNC(c2ccccc2)c2cc(Cl)ccc2N1 (stereo not drawn) | HCT-116 colon | inactive
Oc1ccc2c3c1OC1[C@@H](O)CC[C@@]4(O)[C@@H](C2)N(CC2CCC2)CC[C@]314 (stereo partly drawn) | HCT-116 colon | inactive
O=C(CCCCCCC(=O)Nc1ccc(N(CCCl)CCCl)cc1)NO | HCT-116 colon | inactive
CC(=O)O[C@H](C[C@H](C(C)C)N(C)C(=O)[C@@H](NC(=O)[C@H]1CCCCN1C)C(C)(C)C)c1nc(C(=O)N[C@@H](Cc2ccccc2)C[C@H](C)C(=O)O)cs1 | HCT-116 colon | active
CCOC(=O)[C@@H](C)C[C@H](Cc1ccccc1)NC(=O)c1csc([C@@H](C[C@H](C(C)C)N(C)C(=O)[C@@H](NC(=O)[C@H]2C[C@H](O)CCN2C)C(C)C)OC(C)=O)n1 | HCT-116 colon | active
